Source listed as the nanobody polyreactivity screen of Harvey et al. (2022).

protocol_summary: yeast display, Sf9 membrane polyspecificity reagent, FACS + sequencing; frameworks hold sequencing errors
readout: polyreactivity (PSR sort gate)

polymer_sequence	measured_result
QVQLVESGGGLVQAGGSLRLSCAASGSIFSQYAMGWYRQAPGKERELVAAISSSGDSTNYADSVKGRFTISRDNAKNTVYLQMNSLKPEDTAVYYCNADTYWYRDSRYDYWGQGTQVTVSS	low polyreactivity
QVQLVESGGGLVQAGGSLRLSCAASGSTFERYAMGWYRQAPGKEREFVATINWGGGSTYYADSVKGRFTISRDNAKNTVYLQMNSLKPEDTAVYYCNAYVLYQSWRFSYDCWGQGTQVTVSS	low polyreactivity
QVQLVESGGGLVQAGGSLRLSCAASGSIKDNVMGWYRQAPGKERELVAAITRSAGRTYYADSVMGRFTISRDNEKNTVYLQMNSLKPEDTAVYYCASQAERYGYEYWGQGTQVTVSS	low polyreactivity
QVQLVESGGGLVQAGGSLRLSCAASGSIFRFYAMGWYRQAPGKERELDAVITSTGRKYYADSVKGRFTISRDNAKNTGYLQMTSLKPEDTAVYYCNAAEAGKGAYAYDYWGQGTQVTVSS	low polyreactivity
QVQLVESGGGLVQAGGSLRLSCAASGIIFQYYAMGWYRQAPGKERELVAAINSGTTTYYADSVKGRFTITRDNAKNTVYLQMNSLKPEDTAVYYWNKDWHSQDFSAYNSYDYWGQGTQVTVSS	low polyreactivity
QVQLVESGGGLVQAGGSLRLSCAASGITFWAYAMGWYRQAPGKERELVAAITSGGSTNYADSVKGRFTISRDNAKNTVYLQMNSLKPEDTAVYYCAKNYRYYVFYDGFDYWGQGTQVTVSS	low polyreactivity
QVQHVDSGGGLVQEGGSLRLICAASGSIFEQYTMGWYIQAPGKERELVAAISRRSGRTYYADSVKGRFTISRDNAKNTVYLQMNSLKPADTAVYYCAAQHAIYRNPGLDDYWGQGTQVTVSS	high polyreactivity
QVQIVESGAGLVQAGGSLRISCAPSGRTFLYNAMGWYIQAPGKESELVAAIDGGTGSTYYADSVKARFTISRDNAKNTVYLQMIRLNPEDTAGYYCAAETYGVGYPVNYDYWGQGTQVTVSS	low polyreactivity
QVQLVESGGGLVQAGGSLRLSCAASGSTFIDNTMGWYRQAPGKERELVASIRRSGGSTYYADSVKGRFTISRDNAKNTVYLQMNSLKPEDTAVYYCDVATRYHTTFWYYYWGQGTQVTVSS	high polyreactivity
QVQLVESGGGLVQAGGSLRLSCAATGIIFRDYGKGWYRHAPGKQREFVATITYSGGGTYYADSVKGRFTISRDNAKNTVYLQMNSLKPEDTAVYYCAAYPFYYDLAYDYWGQGTQVTVSS	low polyreactivity
QVQLVDSGGGLVQAGGSLRLSCAASGSIFYVYAMGWYRQAPGKERELVAAISWTGGSTDYADSVKGRFTISRDNAKNTVYLHMNSLKPEDTAVYYCATELGYGDWYNYWGQGTQVTVSS	low polyreactivity

====

protocol_summary: yeast display, Sf9 membrane polyspecificity reagent, FACS + sequencing; frameworks hold sequencing errors
readout: polyreactivity (PSR sort gate)

polymer_sequence	measured_result
QVQLVESGGGLVQAGGSLRLSCAASGRTFSLYAMGWYRQAPGKERELVAAISWGGGSTYYADSVKGRFTISRDNAKNTVYLQMNSLKPEDTAVYYCAADDVSATKYEDDYWGQGTQVTVSS	low polyreactivity
QVQLVESGGGLVQAGGSLRLSCAASGRTFYDYDMGWYRQAPGKERELVATIRRDGSTYYADSVKGRFTISRDNAKNTVYLQMNSLKPEDTAVYYCAKDGGYPLDEPEFDYWGQGTQVTVSS	low polyreactivity
QVQLVESGGGLDQAGGSLRLSCAASGFIYPVYTMGGYRQAPGKERELVAAITQIGGSTHYADTVKGRFTISRDNAKNTVYLQMNSLKPDETAVYYCNAVPSYGTEYDYWGHGTQVTVSS	low polyreactivity
